- System: RAW-Dual (murine macrophage reporter line)
- METHOD SUMMARY: NF-kB reporter (SEAP) activity fold change vs agonist alone; higher = enhanced NF-kB activity
- CONDITION SET: modulator concentration 10 µM; agonist: MPLA […]
RECORDED METRIC: NF-kB reporter
Just the number, please, no unit attached.

Record `O=C(CSc1ccc2ccccc2n1)NC1=NCCS1` , field NF-kB reporter: 0.972

Record `CC#CC(=O)Nc1ccc(N2CCOCC2=O)c(C)c1` , field NF-kB reporter: 1.01

Record `CCCCOc1ccc(CC(=O)NO)cc1` , field NF-kB reporter: 1.34

Record `Cl.Clc1ccc2nsnc2c1NC1=NCCN1` , field NF-kB reporter: 0.993

###

Assign NF-kB reporter to each entry below.
- Test system: RAW-Dual (murine macrophage reporter line)
- METHOD SUMMARY: NF-kB reporter (SEAP) activity fold change vs agonist alone; higher = enhanced NF-kB activity
- CONDITION SET: modulator concentration 10 µM; agonist: LPS 0.1 ug/mL
Just the number, please, no unit attached.

Reading of NF-kB reporter for CS(=O)(=O)N1CCCCC1C(=O)N(CC1CCCO1)c1nc2c(F)cccc2s1 (stereo unspecified) with RAW-Dual (murine macrophage reporter line): 1.02

Reading of NF-kB reporter for NC(=O)NCC(N)C(=O)O (stereo unspecified) with RAW-Dual (murine macrophage reporter line): 1.02

Reading of NF-kB reporter for OC(c1cc(C(F)(F)F)nc2c(C(F)(F)F)cccc12)C1CCCCN1 (stereo unspecified) with RAW-Dual (murine macrophage reporter line): 0.973

Reading of NF-kB reporter for CCN(CC)CC#CCOC(=O)C(O)(c1ccccc1)C1CCCCC1.Cl (stereo unspecified) with RAW-Dual (murine macrophage reporter line): 1.01

Reading of NF-kB reporter for `CNCC[C@@H](Oc1ccccc1C)c1ccccc1.Cl` with RAW-Dual (murine macrophage reporter line): 0.996

Reading of NF-kB reporter for `COCCN1CCC(NC(=O)c2cnc3ccccc3n2)CC1` with RAW-Dual (murine macrophage reporter line): 1.02

###

- System: RAW-Dual (murine macrophage reporter line)
- METHOD SUMMARY: NF-kB reporter (SEAP) activity fold change vs agonist alone; higher = enhanced NF-kB activity
- CONDITION SET: modulator concentration 10 µM; agonist: LPS 0.1 ug/mL
Assign NF-kB reporter to each entry below.
Just the number, please, no unit attached.

Record `COC(=O)[C@]12CCC(C)(C)C[C@H]1[C@H]1C(=O)C=C3[C@@]4(C)C=C(C#N)C(=O)C(C)(C)[C@@H]4CC[C@@]3(C)[C@]1(C)CC2` , field NF-kB reporter: 0.294

Record `O=C(c1cc2ccccc2o1)N1CC(N2C(=O)CNC2=O)C1` , field NF-kB reporter: 1.04

Record `O=C(C=Cc1ccco1)Nc1ccc(C(=O)O)cc1NC(=O)C=Cc1ccco1` , field NF-kB reporter: 1.11

Record `Cc1ccc(C(=O)c2cc(O)c(O)c([N+](=O)[O-])c2)cc1` , field NF-kB reporter: 1.09

###

- Test system: RAW-Dual (murine macrophage reporter line)
- METHOD SUMMARY: NF-kB reporter (SEAP) activity fold change vs agonist alone; higher = enhanced NF-kB activity
- CONDITION SET: modulator concentration 10 µM; agonist: MPLA […]
Assign NF-kB reporter to each entry below.
Just the number, please, no unit attached.

Record COC(CNC(=O)c1cccc(Br)c1)c1ccccc1C (stereo unspecified) , field NF-kB reporter: 0.873

Record `O=C1c2cccc3c2[C@H](CCC3)CN1[C@@H]1CN2CCC1CC2` , field NF-kB reporter: 0.788

Record `Cn1nccc1-c1ccc(CNC(=O)c2cc(Br)cs2)cn1` , field NF-kB reporter: 1.16

Record `N#CC[C@@H](C1CCCC1)n1cc(-c2ncnc3[nH]ccc23)cn1` , field NF-kB reporter: 0.914

Record `O=C(CSc1ncnc2c(-c3ccccc3)c[nH]c12)NCc1ccc(Cl)cc1` , field NF-kB reporter: 0.796

Record `COCCNCCOc1cc(C)c(Cl)c(C)c1` , field NF-kB reporter: 0.932

Record `O=S1(=O)Nc2c(ccc3cccnc23)-c2ccccc21` , field NF-kB reporter: 2.34

Record Cc1cc(C(O)CCNC(=O)Nc2ccc(Cl)c(Cl)c2)c(C)o1 (stereo unspecified) , field NF-kB reporter: 0.791

Record `Cc1ccc(NC(=O)Nc2c(C)nc(N3CCN(C)CC3)nc2C)cc1F` , field NF-kB reporter: 0.818

Record `CC12CC3CC(C)(C1)CC(N)(C3)C2.Cl` , field NF-kB reporter: 0.855

Record `C[C@@H]1CCN(C(=O)CC#N)C[C@@H]1N(C)c1ncnc2[nH]ccc12` , field NF-kB reporter: 0.824

###

- System: RAW-Dual (murine macrophage reporter line)
- METHOD SUMMARY: IRF reporter (Lucia luciferase) activity fold change vs agonist alone; higher = enhanced IRF activity
- CONDITION SET: modulator concentration 10 µM; agonist: LPS 0.1 ug/mL
RECORDED METRIC: IRF reporter

Record `O=C(O)c1ccc(NCn2nnc3ccccc32)cc1` , field IRF reporter: 1.37

Record `COc1c(C)cnc(Cn2cccc(-c3nc(C)no3)c2=O)c1C` , field IRF reporter: 0.995

Record `Br.NC(=O)C(c1ccccc1)(c1ccccc1)[C@@H]1CCN(CCc2ccc3c(c2)CCO3)C1` , field IRF reporter: 1.15

Record `COc1ccc(-c2oc3ccc(OC)cc3c2C(=O)Nc2ccccc2C)cc1` , field IRF reporter: 1.1

Record `N#Cc1c(-n2ncnc2-c2cccc([N+](=O)[O-])c2)sc2c1CCCC2` , field IRF reporter: 1.46

Record Cc1cc(OCC(O)CN2CCCCC2C)cc(C)c1Cl.Cl (stereo not drawn) , field IRF reporter: 1.2

Record CCc1ccc(CCOc2ccc(CC3SC(=O)NC3=O)cc2)nc1.Cl (stereo not drawn) , field IRF reporter: 1.22

Record CC(Sc1ccc(Cl)cc1)C(=O)NCc1cccnc1 (stereo not drawn) , field IRF reporter: 0.905

Record `O=C(CN(CCc1ccccc1)S(=O)(=O)c1ccc(Cl)cc1)NCc1ccncc1` , field IRF reporter: 1.17

Record `O=C(NCCN1CCOCC1)c1cc2nc(-c3ccccc3)cc(C(F)(F)F)n2n1` , field IRF reporter: 1.09

Record `O=C(COc1cccc2ccccc12)NCc1ccncc1` , field IRF reporter: 1.34

Record O=C(COc1ccccc1)N1CCCC1Cn1nccn1 (stereo not drawn) , field IRF reporter: 1.17

Record `COc1ccc(NC(=O)CN(c2ccc(C)c(C)c2)S(C)(=O)=O)cc1` , field IRF reporter: 1.46

Record CCN1CCN(c2nc3c(c(=O)[nH]c(=O)n3C)n2CC(O)COc2cc(C)ccc2C(C)C)CC1 (stereo not drawn) , field IRF reporter: 1.38

Record `CC(C)NNC(=O)c1ccncc1` , field IRF reporter: 0.958

Record `O=c1[nH][nH]c(=O)c2c(N=Cc3cc4c(cc3[N+](=O)[O-])OCO4)cccc12` , field IRF reporter: 1.13

Record CCOC(=O)C1CCCN(S(=O)(=O)Cc2ccccc2)C1 (stereo not drawn) , field IRF reporter: 1.42

Record `COc1ccc(OC)c(NC(=O)COc2cccc3c2OC(C)(C)C3)c1` , field IRF reporter: 0.912

Record `COc1ccc2c3c([nH]c2c1)C(=O)CCC3` , field IRF reporter: 0.561

Record O=C(NC(Cc1cc(=O)[nH]c2ccccc12)C(=O)O)c1ccc(Cl)cc1 (stereo not drawn) , field IRF reporter: 1.32

Record `CN1CCC(OC(c2ccccc2)c2ccccc2)CC1.Cl` , field IRF reporter: 0.967

Record `CCc1cc(=O)oc2cc(OCC(=O)OC(C)C)ccc12` , field IRF reporter: 1.44

Record `Cn1cnc2c(F)c(Nc3ccc(Br)cc3F)c(C(=O)NOCCO)cc21` , field IRF reporter: 1.17

Record Cn1c(=O)c2c(ncn2CC(O)CO)n(C)c1=O (stereo not drawn) , field IRF reporter: 1.32

Record `Cc1nn2c(=O)c(Cc3ccccc3)c(C)[nH]c2c1-c1ccccc1` , field IRF reporter: 1.26

Record `CCc1ccc(Cc2ccc3c(c2)[C@]2(OC3)O[C@H](CO)[C@@H](O)[C@H](O)[C@H]2O)cc1.O` , field IRF reporter: 1.04

Record Cc1ccc(N2C(=O)CC(Nc3ccc(N4CCOCC4)cc3)C2=O)cc1 (stereo not drawn) , field IRF reporter: 1.2

Record `O=C(O)c1cc(O)ccc1O` , field IRF reporter: 0.969

###

- Tested on: RAW-Dual (murine macrophage reporter line)
- METHOD SUMMARY: IRF reporter (Lucia luciferase) activity fold change vs agonist alone; higher = enhanced IRF activity
- CONDITION SET: modulator concentration 10 µM; agonist: LPS 0.1 ug/mL
Assign IRF reporter to each entry below.

Record O=C(CN1CCN(c2ccccc2F)C1=O)N1CCCC(Oc2cnccn2)C1 (stereo not given) , field IRF reporter: 1.26

Record CCCCC1(C)OC(=O)C(=Cc2ccc(OC)c([N+](=O)[O-])c2)C(=O)O1 (stereo not given) , field IRF reporter: 1.16

Record COC(=O)C1=C(C)NC(C)=C(C(=O)OC(C)C)C1c1cccc2nonc12 (stereo not given) , field IRF reporter: 1.08

Record Clc1ccc(Nc2nc3nonc3nc2NC2C3CC4CC(C3)CC2C4)cc1 (stereo not given) , field IRF reporter: 1.32

Record CCCC(=O)OCOC(=O)C1=C(C)NC(C)=C(C(=O)OC)C1c1cccc(Cl)c1Cl (stereo not given) , field IRF reporter: 1.18

Record Cc1nccn1CC1CCc2c(c3ccccc3n2C)C1=O.Cl.O.O (stereo not given) , field IRF reporter: 1.35

Record CCN1CCCC1CNC(=O)c1cc(S(=O)(=O)CC)c(N)cc1OC (stereo not given) , field IRF reporter: 0.957

Record `COc1ccc(C(=O)Nc2cc(C)nc3c(C)cc(C)cc23)cc1OC` , field IRF reporter: 0.767

Record `O=C(NN=Cc1sc2ccccc2c1Cl)c1ccncc1` , field IRF reporter: 1.5

Record `O=c1ncnc2[nH][nH]cc1-2` , field IRF reporter: 1.17

Record `CCNC(=O)c1ccc(CN2CCc3ccccc3C2)cc1` , field IRF reporter: 1.37

Record `Nc1nnc(C(=O)O)[nH]1` , field IRF reporter: 1.03

Record CNC(C)CCC=C(C)C.CNC(C)CCC=C(C)C (stereo not given) , field IRF reporter: 1.17

Record `COc1cc(C=Cc2nc3ccccc3nc2O)cc(OC)c1` , field IRF reporter: 0.834

Record `NC(=O)NO` , field IRF reporter: 1.44

Record `NC(=O)CC[C@@H](N)C(=O)O` , field IRF reporter: 1.37

Record `O=C(COCc1ccccc1)NC1CCC(F)(F)CC1` , field IRF reporter: 1.1

Record `CCOc1ccc2oc(-c3ccccc3)c(C(=O)N3CCN(C)CC3)c2c1` , field IRF reporter: 1.15

Record CCOc1ccc(NC(=O)CC2Nc3cccc4cccc(c34)NC2=O)cc1 (stereo not given) , field IRF reporter: 1.31

Record `O=C(O)c1cc2nc(-c3ccc(Cl)c(Cl)c3)cc(C(F)(F)F)n2n1` , field IRF reporter: 1.66

Record `CCCN(CCC)C(=O)C1=Cc2ccc(-c3ccc(C(=O)N4CCCC4)cc3)cc2N=C(N)C1` , field IRF reporter: 1.29

Record CCN(CCO)CCCC(C)Nc1ccnc2cc(Cl)ccc12.O=S(=O)(O)O (stereo not given) , field IRF reporter: 1.08

Record `O=C(OCCN1CCOCC1)c1ccc(O)cc1O` , field IRF reporter: 0.972

Record CC1=C(CC(=O)O)c2cc(F)ccc2/C1=C\c1ccc(S(C)=O)cc1 (stereo not given) , field IRF reporter: 1.23

Record COC(=O)C1=CN(CC2CCCO2)C=C(C(=O)OC)C1c1ccc(F)cc1 (stereo not given) , field IRF reporter: 0.95
